tested on: SW1573 cells (chemosensitive parental non-small-cell lung cancer line); assay: EZ4U viability assay in resistance models, SW1573; type: cell-based, human; settings: read-out: IC50 SW1573, 96 h exposure
measure: pIC50
API: returns pIC50 as number; meaning -log10 of concentration in mol/L.

Summary for this compound, N.N.[Cl][Pt][Cl] [cisplatin] : pIC50 is 5.19

###

tested on: CH1 (ovarian carcinoma) cells; assay: MTT cytotoxicity assay, CH1 cells; assay type: cell-based, human; conditions: read-out: IC50 CH1, 96 h exposure, mean ± SD
measure: pIC50
Kindly note that pIC50 refers to -log10 of the concentration in mol/L and answer with the value alone.

Quick note, pIC50 for N.N.[Cl][Pt][Cl] [cisplatin] landed at 6.80
